assay: osmotic lysis modulators in infected erythrocytes, primary screen, PSAC antagonist project, cell-based, P. falciparum Indochina, OD700, 3 h (AID 1156); conditions: higher = more signal, called active from +8 up or from −8 down
measured.endpoint: z-score
The response must contain the number and no unit.

Completed entries (count: 3):
COc1cc(O)c(C(=O)C=Cc2ccc3c(c2)OCO3)c(OC)c1: 0.484
CCOC(=O)[C@H](CC(C)C)NC(=O)CCC1CC(OC(=O)NCc2cccc3ccccc23)CC2(CCCC(COC(=O)NCCC(C)C)O2)O1 (some centres not stated): -0.861
CC(C)CON=C1C[C@@H](O)[C@@H](O)[C@@H]2[C@@H]3C(=O)N(c4cccc(Oc5ccccc5)c4)C(=O)[C@@H]3CC[C@@H]12: 1.07

## Input Return reported z-score; argument: CCOC(=O)[C@H](CC(C)C)NC(=O)CCC1CC(OC(=O)NCc2cccc3ccccc23)CC2(CCCC(COC(=O)NCCCN3CCCC3=O)O2)O1 (some centres not stated)
## Output 0.662

## Input Also, C#CCCCON=C1C[C@@H](O)[C@@H](O)[C@@H]2[C@@H]3C(=O)N(CC)C(=O)[C@@H]3CC[C@@H]12 please.
## Output -0.26

## Input Also, CC(=O)OC[C@H]1O[C@H](CCON=C2[C@H]3CCn4c(=O)n(-c5ccccc5)c(=O)n4[C@H]3[C@H](O)[C@@H]3O[C@H]23)C=C[C@@H]1OC(C)=O please.
## Output -0.192

## Input Also, CC(CCN1CCCCc2nc(C)c(C)cc21)=NOC[C@@H](C)[C@H](OCc1ccccc1)C(C)C please.
## Output 0.167

----------
Recorded composite z-score, one value per entry.
tested on: Neuregulin-1 EGF-like domain; assay: binders of neuregulin-1 EGF-like domain, primary screen, biochemical, small-molecule microarray, 635 nm fluorescence (AID 1081); details: small-molecule microarray binding, higher = more signal;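 also: binding of the protein to compounds printed on small-molecule microarray slides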
The response must contain the number and no unit.

Completed entries (count: 6):
CCN1C(=O)[C@H]2[C@H]3[C@H](O)[C@H](O)CC(=NOCC(C)C)[C@@H]3CC[C@H]2C1=O: 0.336
C#CCCCON=C1[C@H]2CCn3c(=O)n(C)c(=O)n3[C@H]2[C@H](O)[C@@H]2O[C@H]12: 0.58
C=CC[C@@H]1C=C[C@H](ON=C2[C@H]3CCn4c(=O)n(-c5ccccc5)c(=O)n4[C@H]3[C@H](O)[C@@H]3O[C@H]23)[C@@H](CO)O1: 0.0586
CCc1cc2c(nc1CC)CCN(CCC(C)=NO[C@H](C)c1cn([C@@H]3COC[C@H]3O)nn1)C2: -0.365
CON=C[C@@H](C)[C@H](OCc1ccccc1)C(C)C: -0.502
CO[C@H]1COC(=O)CC=C[C@H](C)[C@@H](OC)COC(=O)[C@@H](C)NC(=O)CC=C[C@@H]1C: 0.515

## Input Lab note: need composite z-score for O=C(NN=C1C[C@@H](O)[C@@H](O)[C@@H]2[C@@H]3C(=O)N(C[C@@H]4CCCO4)C(=O)[C@@H]3CC[C@@H]12)OCc1ccccc1 on Neuregulin-1 EGF-like domain, anyone have it?
## Output 0.631

## Input Also, COC(=O)CC=C[C@@H](C)[C@@H](C=NOC[C@@H](O)[C@H]1O[C@@H]2OC(C)(C)O[C@@H]2[C@H]1O)NS(=O)(=O)c1ccc(C)cc1 please.
## Output -0.124

## Input Also, O=C1[C@H]2[C@H]3[C@H](O)[C@H](O)CC(=NOCc4ccccc4)[C@@H]3CC[C@H]2C(=O)N1c1ccc(F)cc1F please.
## Output -0.646

## Input Also, C#CCCCON=C1C[C@@H](O)[C@@H](O)[C@@H]2[C@@H]3C(=O)N(CCC(=O)OCC)C(=O)[C@@H]3CC[C@H]12 please.
## Output 0.685

## Input Also, COc1ccc(C#C[C@@H]2C=C[C@H](OC(C)=O)[C@@H](COC(C)=O)O2)cc1 please.
## Output -0.0975

## Input Also, CCN1C(=O)[C@@H]2[C@H]3C(=CC[C@@H]2C1=O)C1(OCCCO1)[C@H]1O[C@H]1[C@H]3O please.
## Output 1.19

## Input Also, CCOC(=O)[C@H](Cc1ccccc1)NC(=O)CCC1CC(OC(=O)NCCc2ccc(F)cc2)CC2(CCCC(COC(=O)NCCc3ccc(Cl)cc3)O2)O1 (stereo not given in full) please.
## Output 0.872

## Input Also, CC(=O)OC[C@H]1OC(ON=CC[C@@H]2C=C[C@H](OC(C)=O)[C@@H](COC(C)=O)O2)[C@H](OC(C)=O)[C@@H](OC(C)=O)[C@@H]1OC(C)=O (stereo not given in full) please.
## Output -0.595

## Input Also, CO[C@H]1COC(=O)CC=C[C@@H](C)[C@H](OC)COC(=O)[C@@H]2CCCN2C(=O)CC=C[C@@H]1C please.
## Output 0.87

----------
test system: Noggin (protein binding on small-molecule microarray); test: Noggin binders on small-molecule microarray, primary screen, biochemical, 635/667 nm fluorescence (AID 1095); details: 635 nm fluorescence, higher = more signal;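 also: score merges 667 nm feature fluorescence with signal to noise over triplicate slides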
measured.endpoint: composite z-score
The response must contain the number and no unit.

Completed entries (count: 2):
CCOC(=O)NN=C1C[C@@H](O)[C@@H](O)[C@@H]2[C@@H]3C(=O)N(Cc4ccc5c(c4)OCO5)C(=O)[C@@H]3CC[C@H]12: 0.303
C=CC[C@@H]1C=C[C@H](ON=C(C)CCC(=O)OC[C@H]2O[C@H](C#Cc3ccccc3)C=C[C@@H]2Oc2ccc(C)cc2)[C@@H](CO)O1: 0.615

Proceeding to the next molecule to report its composite z-score.
## Input Lab note: need composite z-score for O=c1n(Cc2cc3c(cc2Cl)OCO3)c(=O)n2n1CC[C@@H]1C(=NOC[C@@H](O)COCc3ccco3)[C@H]3O[C@H]3[C@@H](O)[C@@H]12 on Noggin (protein binding on small-molecule microarray), anyone have it?
## Output 0.323

----------
Recorded composite z-score, one value per entry.
molecular target: Neurogenic locus notch homolog protein 2 (Homo sapiens); experiment: Notch2 binders on small-molecule microarrays, primary screen, biochemical, small-molecule microarray, 635 nm fluorescence, stem cell growth factors (AID 1073); details: Notch2 binding, higher = more signal
The response must contain the number and no unit.

## Input Return reported composite z-score; argument: CCOC(=O)[C@H](CC(C)C)NC(=O)CCC1CC(OC(=O)NCCc2ccc(F)cc2)CC2(CCCC(COC(=O)NCC3CCCCC3)O2)O1 (stereo partly drawn)
## Output 0.482

## Input Also, CCCCC#C[C@@H]1C=C[C@H](Oc2ccc(C(=O)OC)cc2)[C@@H](COC(=O)OCC)O1 please.
## Output 0.65

----------
target: Pro-neuregulin-1, membrane-bound isoform (Homo sapiens) (UniProt Q02297); experiment: NRG1 binders on small-molecule microarrays, primary screen, psychiatric disease protein project, biochemical, small-molecule microarray, fluorescence 635/667 (AID 1075); conditions: NRG1 binding, 635 nm fluorescence, higher = more signal;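 also: score combines 667 nm spot fluorescence with signal to noise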
Sequence (Q02297 whole entry, looked up, canonical isoform): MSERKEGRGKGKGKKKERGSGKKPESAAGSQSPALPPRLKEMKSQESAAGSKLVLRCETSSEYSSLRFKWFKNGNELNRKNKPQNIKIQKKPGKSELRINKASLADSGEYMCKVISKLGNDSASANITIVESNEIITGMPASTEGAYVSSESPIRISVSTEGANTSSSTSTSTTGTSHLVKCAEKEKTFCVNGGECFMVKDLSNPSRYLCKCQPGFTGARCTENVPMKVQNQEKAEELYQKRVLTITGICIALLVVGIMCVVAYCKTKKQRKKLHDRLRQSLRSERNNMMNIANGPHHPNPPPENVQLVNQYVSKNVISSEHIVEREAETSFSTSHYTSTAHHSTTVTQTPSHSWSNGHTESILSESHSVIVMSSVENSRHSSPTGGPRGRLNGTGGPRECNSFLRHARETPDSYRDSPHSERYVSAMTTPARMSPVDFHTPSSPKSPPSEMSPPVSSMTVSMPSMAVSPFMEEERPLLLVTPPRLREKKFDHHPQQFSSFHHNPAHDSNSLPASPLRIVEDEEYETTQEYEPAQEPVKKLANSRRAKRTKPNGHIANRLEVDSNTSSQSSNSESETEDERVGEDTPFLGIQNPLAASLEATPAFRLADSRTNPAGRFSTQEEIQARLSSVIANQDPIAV
Classification by composite z-score follows these ranges: range 1 = under -0.2, range 2 = from -0.2 up to 0.08, range 3 = 0.08 and over

Solved entries:
COC(=O)[C@H](C)NC(=O)CCC1CC(OC(=O)NCCc2ccc(F)cc2)CC2(CCCC(COC(=O)NCCC(C)C)O2)O1 (stereo not given in full): range 3
CC(CCN1CCCCc2nc(C)c(C)cc21)=NO[C@@H](C)c1cn([C@H](CO)Cc2ccccc2)nn1: range 3
O=C1C2=CC[C@H]3C(=O)N(c4cccc(Oc5ccccc5)c4)C(=O)[C@H]3[C@H]2[C@H](O)[C@@H]2O[C@H]12: range 2
CC(C)[C@@H](OCc1ccccc1)[C@H](C)C=NOC[C@@H](O)COCc1ccco1: range 1
C=CC[C@@H]1C=C[C@H](ON=C[C@@H](C)[C@H](OCc2ccccc2)C(C)C)[C@@H](CO)O1: range 1

## Input Which bin should I file CC(C)CON=C1C[C@@H](O)[C@@H](O)[C@@H]2[C@@H]3C(=O)N(c4cccc(Oc5ccccc5)c4)C(=O)[C@@H]3CC[C@@H]12 under?
## Output range 3

## Input Also, CON=CC[C@@H]1C=C[C@H](OC(C)=O)[C@@H](COC(C)=O)O1 please.
## Output range 2

## Input Also, CCOC(=O)NN=C1C[C@@H](O)[C@@H](O)[C@@H]2[C@@H]3C(=O)N(C(C)(C)C)C(=O)[C@@H]3CC[C@H]12 please.
## Output range 2

## Input Also, CCOC(=O)[C@H](CC(C)C)NC(=O)CCC1CC(OC(=O)NCc2cccc3ccccc23)CC2(CCCC(COC(=O)NCc3cccc(C(F)(F)F)c3)O2)O1 (stereo not given in full) please.
## Output range 2

## Input Also, CCCNC(=O)OC[C@H]1O[C@H](CCON=C(C)CCN2CCc3nc(CC)c(CC)cc3C2)C=C[C@@H]1Oc1ccc(OC)cc1 please.
## Output range 3
